subject_of_test: HLA-B*15:17
method: IEDB peptide-MHC binding, purified MHC/competitive/fluorescence; filed as Kd, often an IC50 or EC50 that approximates it; bounds were set here for any values at or beyond the usual limits of such assays
experimental_parameters: source organism: Brucella suis ATCC 23445
pKd: −log10 of the molar value.
attribute_measured: pKd

[[record]]
sequence = "ITAVNRYFK"
subject_of_test = "HLA-B*15:17"
result = "≤ 4.70"


----------
subject_of_test: HLA-A*69:01
method: IEDB peptide-MHC binding, purified MHC/direct/fluorescence; filed as Kd, often an IC50 or EC50 that approximates it; bounds were set here for any values at or beyond the usual limits of such assays
experimental_parameters: source organism: Homo sapiens
attribute_measured: Kd (µM)

[[record]]
sequence = "SSEQTFMYY"
attribute_measured = "Kd"
measurement_unit = "µM"
numeric_result = 8.34

